These data points were gathered from ChEMBL document CHEMBL1201862.

Tested on: IGROV-1
Assay: NCI tumour cell line growth inhibition, 48 h
The source made the active and inactive calls. Rule as the data show it: active = GI50 up to about 1.1 µM and inactive = higher.
Labels: active, inactive

{"compound": "COc1cc(O)c2c(=O)c(OC)c(-c3ccc4c(c3)OCO4)oc2c1OC", "tgt": "IGROV-1", "group-label": "inactive"}
{"compound": "NC(CCC(=O)NC(CSCC1C(=O)Nc2ccccc21)C(=O)NCC(=O)O)C(=O)O (stereo not drawn)", "tgt": "IGROV-1", "group-label": "inactive"}
{"compound": "Cc1cc(N(CCC#N)CCC#N)ccc1C(/N=N\\c1ccc([N+](=O)[O-])cc1)=N\\NC(=O)c1cc(Cl)ccc1O", "tgt": "IGROV-1", "group-label": "inactive"}
{"compound": "O=C(O)[C@@H]1C[C@@H](O)CN1", "tgt": "IGROV-1", "group-label": "inactive"}
{"compound": "CCOc1ccc(NCc2cc(OC)c(OC)c(OC)c2)cc1", "tgt": "IGROV-1", "group-label": "inactive"}
{"compound": "NCCCC(N)C(=O)O (stereo not drawn)", "tgt": "IGROV-1", "group-label": "inactive"}
{"compound": "COc1ccc(S(=O)(=O)N(CC(=O)O)c2ccccc2)cc1", "tgt": "IGROV-1", "group-label": "inactive"}
{"compound": "Cc1cnc(Cl)nc1C(C#N)c1nc2ccccc2s1 (stereo not drawn)", "tgt": "IGROV-1", "group-label": "inactive"}
{"compound": "C=C(C)[C@@H]1CC[C@@H]2C(=CC[C@]3(C)C([C@H](C)CC/C=C(/C)C(=O)O)CC[C@@]23C)[C@@]1(C)CCC(=O)O (stereo partly drawn)", "tgt": "IGROV-1", "group-label": "inactive"}
{"compound": "Cc1cccc(-n2c(C)nc3ccc(NC(=S)Nc4ccccc4)cc3c2=O)c1", "tgt": "IGROV-1", "group-label": "inactive"}
{"compound": "COc1cccc(NC(=O)CSc2nnc(-c3ccc(NC(C)=O)cc3)o2)c1", "tgt": "IGROV-1", "group-label": "inactive"}
{"compound": "CC1(C)OC(CP(c2ccccc2)c2ccccc2)C(CP(c2ccccc2)c2ccccc2)O1 (stereo not drawn)", "tgt": "IGROV-1", "group-label": "active"}
{"compound": "C=C1CCC2CC1C(C(=O)c1c[nH]c3ccccc13)=NC2(C)C (stereo not drawn)", "tgt": "IGROV-1", "group-label": "inactive"}
{"compound": "O=C(CSc1nnc(Cc2ccccc2)o1)Nc1ccccc1Cl", "tgt": "IGROV-1", "group-label": "inactive"}
{"compound": "CCOC(=O)C(Cc1ccc(N=NN(C)C)cc1)NC(=O)CC1c2ccccc2-c2ccccc21 (stereo not drawn)", "tgt": "IGROV-1", "group-label": "inactive"}
{"compound": "NC(C/C=C/P(=O)(O)O)C(=O)O (stereo not drawn)", "tgt": "IGROV-1", "group-label": "inactive"}
{"compound": "CC(Cc1ccccc1)Nc1ncnc2c1ncn2C1OC(CO)CC1O (stereo not drawn)", "tgt": "IGROV-1", "group-label": "inactive"}
{"compound": "Cc1nnc(Sc2nc(C#N)c(C#N)nc2Sc2nnc(C)s2)s1", "tgt": "IGROV-1", "group-label": "inactive"}
{"compound": "CCN(CC)CCNC(=O)c1ccccc1NC(=O)C(=O)Nc1ccccc1C(=O)NCCN(CC)CC", "tgt": "IGROV-1", "group-label": "inactive"}
{"compound": "CCN1N=CSC12C(=O)N(c1ccccc1)C(=O)N2c1ccccc1 (stereo not drawn)", "tgt": "IGROV-1", "group-label": "inactive"}
{"compound": "C[Si](C)(C)OC1(C#N)C2C3CC4C2C(=O)C2C4C3C21 (stereo not drawn)", "tgt": "IGROV-1", "group-label": "inactive"}
{"compound": "CC(=O)OC1CC2C(C)(C)C(=O)C=C[C@]2(C)C2CCC3(C)C(c4ccoc4)C(=O)[C@H]4O[C@]43[C@]12C (stereo partly drawn)", "tgt": "IGROV-1", "group-label": "inactive"}
{"compound": "C1CCNCC1.O=C1NC(=S)N/C1=C/c1ccccc1O", "tgt": "IGROV-1", "group-label": "inactive"}
